Target: RanGTP-importin-beta complex (human Ran / KPNB1)
Assay: disruptors of RanGTP/KPNB1 binding – biochemical, FRET, CFP/YFP, cell-free homogeneous, confirmation (AID 2823)
Conditions: CFP-Ran/YFP-importin-beta FRET ratio
Activity calls are given as the source filed them. The rule behind the calls is not given here.
Possible outcomes: label 1 = active, label 0 = inactive

COMPOUND | QUALITATIVE LABEL
Cc1c(S(=O)(=O)N2CCCC(C(=O)O)C2)cnn1C (stereo unspecified) | label 0
O=C(/C=C/c1cccs1)Nc1ccc([N+](=O)[O-])cc1 | label 0
COc1ccccc1C#Cc1ccc2c(=O)c3ccccc3n(C)c2c1 | label 1
Cc1c(Cl)c([N+](=O)[O-])nn1CCCC(=O)Nc1sc2c(c1C(N)=O)CCC(C)C2 (stereo unspecified) | label 0
Oc1c(C(Nc2nc3ccccc3s2)c2ccco2)ccc2cccnc12 (stereo unspecified) | label 0
Nc1c(C(=O)NC2CCCC2)c2nc3ccccc3nc2n1/N=C/c1ccco1 | label 1
CCN(CC)Cc1c(O)ccc2c(C)c(CC(=O)OC)c(=O)oc12 | label 1
Nc1ccc(C2(c3ccc(N)cc3)CN3CCC2CC3)cc1 | label 0
Cc1cc(NC(=O)c2sc3ccccc3c2O)no1 | label 1
CCCOc1ccc(Cn2ccnc2)cc1[N+](=O)[O-] | label 0
CC1CC1c1ccc(/C=C(\C#N)C(=O)Nc2ccc(Cl)cc2)o1 (stereo unspecified) | label 0
O=c1[nH]c(=O)n(-c2cccc3ccccc23)c(O)c1/C=N/N1CCCCCC1 | label 0
O=C1NC(=S)S/C1=C1\Sc2ccccc2N1CCCS(=O)(=O)O | label 1
CCN1CCc2c(sc(N)c2C#N)C1 | label 1
CSc1sc(C)cc1C1C(C#N)=C(N)N(c2cccnc2)C2=C1C(=O)CCC2 (stereo unspecified) | label 1
CC(C)C1C2=C(CC(C)(C)CC2=O)ON1c1ccccc1 (stereo unspecified) | label 0
CCCc1c2ccccc2nc2ccccc12 | label 1
CCN(CCO)C(=S)Nc1cc(C(=O)OC)ccc1C(=O)OC | label 0
CCOC(=O)N1CCN(/C=C(\C#N)c2nc3ccccc3s2)CC1 | label 0
O=C(Cc1ccccc1C(=O)O)Nc1cccc2ccccc12 | label 0
CC(C)OC(=O)c1c(N)n(CCCN2CCOCC2)c2nc3ccccc3nc12 | label 1
CCOc1ccc(OCc2ccc(C(=O)N(CC)CC)cc2)cc1 | label 0
COc1cc(NC(=O)C2CC2)c(OC)cc1NC(=O)c1ccco1 | label 0
CCOC(=O)c1ccc(NC(=O)CSc2nnc(C3CCCCC3)n2C)cc1 | label 0
Cc1ccc(OCC(=O)NCCNC(=O)c2ccc(C)nc2)cc1 | label 0
CCN1/C(=C\C=C\C2=[N+](CC)c3ccccc3C2(C)C)C(C)(C)c2ccccc21 | label 1
CCOCCCNC(=S)NCCNc1nc2c(C)cccc2cc1C#N | label 1
COC(=O)C1=CN(Cc2ccc(OC)c(OC)c2)C=C(C(=O)OC)C1c1ccccc1F | label 1
CCOC(=O)/C(C#N)=C1/C=Nc2ccccc2N1 | label 0
C=CCN1C(=O)/C(=C\c2ccc(OC(=O)c3ccco3)c(OC)c2)SC1=S | label 0
Cc1cc2c(c(=O)n1CC1CCCO1)C(c1ccco1)C(C#N)=C(N)O2 (stereo unspecified) | label 1
N#Cc1cc2c(ccc3ccccc32)oc1=O | label 0
CCN(/N=C/C=C/c1ccccc1)c1cc(=O)n(C)c(=O)[nH]1 | label 0
COc1ccc(CCNC(=O)c2cc3c(=O)n4ccccc4nc3n(CCCN3CCOCC3)c2=N)cc1 | label 1
Cn1c(SCc2ccccc2F)nnc1-c1ccccn1 | label 0
COc1ccc(C2NC(C(=O)O)Cc3c2[nH]c2ccccc32)cc1CN1CCN(c2ccc(F)cc2)CC1 (stereo unspecified) | label 1
COc1ccc(NC(=O)c2ccc3snnc3c2)cc1 | label 0
COCCNC(=O)/C(C#N)=C/c1ccc(-c2ccc(S(=O)(=O)N3CCOCC3)cc2)o1 | label 0
CCCCOc1ccc(OCCSc2nc3ccccc3n2CC(=O)O)cc1 | label 0
CCc1ccc(C(=O)c2cc3ccc(O)cc3oc2=O)cc1 | label 1
CC1(C)CC(=O)C/C(=N\NC(=O)C2CC23CCC3)C1 (stereo unspecified) | label 0
CCC(C)c1ccc(OCC(=O)O)cc1 (stereo unspecified) | label 0
CC(C)NC(=O)/C(C#N)=C/c1ccc(N(C)C)o1 | label 1
COc1ccc(CCNC(=O)c2cc3c(=O)n4cccc(C)c4nc3n(CCCN3CCOCC3)c2=N)cc1 | label 1
CS(=O)(=O)N(CC(=O)NCCSCc1ccco1)c1ccc(Cl)cc1 | label 0
CC(C)Cc1ccc(CN2CCC(n3nccc3NC(=O)C3CCCC3)CC2)cc1 | label 0

Attribution: PubChem BioAssay AID2823
